- Tested on: HeLa Kyoto;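 note: synchronized HeLa Kyoto cells, proteins quantified by TMT10plex mass spectrometry, three biological replicates, mitosis taken 0.5 h after nocodazole release, G1/S directly after double thymidine block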
- test-protocol: thermal stability score vs G1/S (z-score of summed log2 fold changes over temperatures); higher = more thermally stable than in G1/S
- measurement-context: cell cycle stage: mitosis
parameter-measured: thermal stability score

sequence-text	meas-value
MKKEHVLHCQFSAWYPFFRGVTIKSVILPLPQNVKDYLLDDGTLVVSGRDDPPTHSQPDSDDEAEEIQWSDDENTATLTAPEFPEFATKVQEAINSLGGSVFPKLNWSAPRDAYWIAMNSSLKCKTLSDIFLLFKSSDFITRDFTQPFIHCTDDSPDPCIEYELVLRKWCELIPGAEFRCFVKENKLIGISQRDYTQYYDHISKQKEEIRRCIQDFFKKHIQYKFLDEDFVFDIYRDSRGKVWLIDFNPFGEVTDSLLFTWEELISENNLNGDFSEVDAQEQDSPAFRCTNSEVTVQPSPYLSYRLPKDFVDLSTGEDAHKLIDFLKLKRNQQEDD [CDC123]	0.565
MELSAVGERVFAAEALLKRRIRKGRMEYLVKWKGWSQKYSTWEPEENILDARLLAAFEEREREMELYGPKKRGPKPKTFLLKAQAKAKAKTYEFRSDSARGIRIPYPGRSPQDLASTSRAREGLRNMGLSPPASSTSTSSTCRAEAPRDRDRDRDRDRERDRERERERERERERERERERGTSRVDDKPSSPGDSSKKRGPKPRKELPDPSQRPLGEPSAGLGEYLKGRKLDDTPSGAGKFPAGHSVIQLARRQDSDLVQCGVTSPSSAEATGKLAVDTFPARVIKHRAAFLEAKGQGALDPNGTRVRHGSGPPSSGGGLYRDMGAQGGRPSLIARIPVARILGDPEEESWSPSLTNLEKVVVTDVTSNFLTVTIKESNTDQGFFKEKR [CBX8]	5.27
MAEQEPTAEQLAQIAAENEEDEHSVNYKPPAQKSIQEIQELDKDDESLRKYKEALLGRVAVSADPNVPNVVVTGLTLVCSSAPGPLELDLTGDLESFKKQSFVLKEGVEYRIKISFRVNREIVSGMKYIQHTYRKGVKIDKTDYMVGSYGPRAEEYEFLTPVEEAPKGMLARGSYSIKSRFTDDDKTDHLSWEWNLTIKKDWKD [ARHGDIA]	-2.01
MAAAAGRSLLLLLSSRGGGGGGAGGCGALTAGCFPGLGVSRHRQQQHHRTVHQRIASWQNLGAVYCSTVVPSDDVTVVYQNGLPVISVRLPSRRERCQFTLKPISDSVGVFLRQLQEEDRGIDRVAIYSPDGVRVAASTGIDLLLLDDFKLVINDLTYHVRPPKRDLLSHENAATLNDVKTLVQQLYTTLCIEQHQLNKERELIERLEDLKEQLAPLEKVRIEISRKAEKRTTLVLWGGLAYMATQFGILARLTWWEYSWDIMEPVTYFITYGSAMAMYAYFVMTRQEYVYPEARDRQYLLFFHKGAKKSRFDLEKYNQLKDAIAQAEMDLKRLRDPLQVHLPLRQIGEKD [MCU]	-1.45
MGGFFSSIFSSLFGTREMRILILGLDGAGKTTILYRLQVGEVVTTIPTIGFNVETVTYKNLKFQVWDLGGQTSIRPYWRCYYSNTDAVIYVVDSCDRDRIGISKSELVAMLEEEELRKAILVVFANKQDMEQAMTSSEMANSLGLPALKDRKWQIFKTSATKGTGLDEAMEWLVETLKSRQ [ARL1]	-0.342
